Just for reference, the supplement of paper PMC9663587 is where these values come from.

System: UACC893
Assay: GRmax, 72 h; higher = less effect;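 note: breast cell lines in 384-well plates, nine doses across a 10^4 range, Dye Drop imaging of viable cells vs DMSO and time-zero plates, GR 0 means no net growth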
endpoint-label: GRmax, 72 h (GR)
Lab book: enter the figure in GR, no units written.

Request: May I ask what GRmax, 72 h has been recorded for O=C1NC(=O)[C@@H](c2cn3c4c(cccc24)CCC3)[C@@H]1c1c[nH]c2ccccc12 [Tivantinib/ARQ197] (max 10 µM) ?
Result: -0.248

Request: May I ask what GRmax, 72 h has been recorded for CC(C)n1nc(-c2ccc3oc(N)nc3c2)c2c(N)ncnc21 [INK128/MLN0128] (max 3.162 µM) ?
Result: -0.483

Request: May I ask what GRmax, 72 h has been recorded for CCN1CCN(Cc2ccc(Nc3ncc(F)c(-c4cc(F)c5nc(C)n(C(C)C)c5c4)n3)nc2)CC1 (max 10 µM) ?
Result: -0.22

Request: May I ask what GRmax, 72 h has been recorded for CO[C@H]1C[C@@H]2CC[C@@H](C)[C@@](O)(O2)C(=O)C(=O)N2CCCC[C@H]2C(=O)O[C@H]([C@H](C)C[C@@H]2CC[C@@H](OCCO)[C@H](OC)C2)CC(=O)[C@H](C)/C=C(\C)[C@@H](O)[C@@H](OC)C(=O)[C@H](C)C[C@H](C)/C=C/C=C/C=C/1C [Everolimus] (max 10 µM) ?
Result: 0.159

Request: May I ask what GRmax, 72 h has been recorded for CCc1cnn2c(NCc3ccc[n+]([O-])c3)cc(N3CCCC[C@H]3CCO)nc12 (max 1 µM) ?
Result: -0.641

Request: May I ask what GRmax, 72 h has been recorded for Cc1cc(C(C)Nc2ccccc2)c2nc(N3CCOCC3)cc(=O)n2c1 (stereo not drawn) [TGX221] (max 10 µM) ?
Result: 0.939

Request: May I ask what GRmax, 72 h has been recorded for CCOc1cc2ncc(C#N)c(Nc3ccc(OCc4ccccn4)c(Cl)c3)c2cc1NC(=O)/C=C/CN(C)C [Neratinib/HKI272] (max 3.162 µM) ?
Result: -0.901

Request: May I ask what GRmax, 72 h has been recorded for CNC(=O)c1cccc(-c2ccc3c(N4CCOC[C@@H]4C)nc(N4CCOC[C@@H]4C)nc3n2)c1 [AZD2014] (max 10 µM) ?
Result: -0.164

Request: May I ask what GRmax, 72 h has been recorded for CC(=O)c1c(C)c2cnc(Nc3ccc(N4CCN(CCOCCOCCOCCNC(=O)COc5cccc6c5C(=O)N(C5CCC(=O)NC5=O)C6=O)CC4)cn3)nc2n(C2CCCC2)c1=O (stereo not drawn) [BSJ-03-123] (max 10 µM) ?
Result: 0.289

Request: May I ask what GRmax, 72 h has been recorded for CN(C)C/C=C/C(=O)Nc1ccc(C(=O)N2CCC[C@@H](Nc3ncc(Cl)c(-c4c[nH]c5ccccc45)n3)C2)cc1 [THZ531] (max 1 µM) ?
Result: -0.417

Request: May I ask what GRmax, 72 h has been recorded for COc1cc2c(Oc3ccc4[nH]c(C)cc4c3F)ncnc2cc1OCCCN1CCCC1 [Cediranib/AZD2171] (max 10 µM) ?
Result: -0.458

Request: May I ask what GRmax, 72 h has been recorded for CC(C)Nc1cc(-c2c[nH]c(C(=O)N[C@H](CO)c3cccc(Cl)c3)c2)c(Cl)cn1 [BVD523] (max 10 µM) ?
Result: 0.274

Request: May I ask what GRmax, 72 h has been recorded for COc1cc(N2CCN(C)CC2)ccc1Nc1ncc2c(n1)N(C)c1ccccc1C(=O)N2CC(F)(F)F ?
Result: 0.987
